Reference source for all entries: patent US11505547B2

# experimental-target: human CTPS1 (Homo sapiens)
# Construct: purchased Proteros biostructures GmbH
# assay-procedure: RapidFire/MS-based enzyme selectivity assay, human CTPS1
# Format: biochemical
# condition-label: RapidFire/MS IC50s, human CTPS1 versus CTPS2
readout-kind: Selectivity (fold selectivity between CTPS1 and CTPS2)

compound | result
CCOc1cncc(-c2ccc(C(=O)NC(CCOC)c3csc(NS(=O)(=O)C4CC4)n3)c(F)c2)n1 (single isomer, unassigned) [Example R93] | +++ (>60 fold (+++))
CCOc1cncc(-c2ccc(C(=O)NC(CC)c3csc(NS(=O)(=O)C4CC4)n3)c(F)c2)n1 (single isomer, unassigned) [Example R71] | +++ (>60 fold (+++))
CCOc1cncc(-c2ccc(C(=O)NC(CCOC)c3csc(NS(=O)(=O)C4CC4)n3)c(F)c2)n1 (single isomer, unassigned) [Example R92] | +++ (>60 fold (+++))

###

For reference, IC50 measured on human CTPS1 (Homo sapiens, UniProt P17812):

Sample answers from the record:
molecule | IC50
CC(=O)c1cncc(-c2ccc(C(=O)NC(C)(C)c3csc(NS(=O)(=O)C4CC4)n3)cc2)c1 [Example R34] | 1000 to 10000 nM
COCCC(NC(=O)c1ccc(-c2cncc(OC(C)C)n2)cc1F)c1csc(NS(=O)(=O)C2CC2)n1 (stereo not shown) [Example R89] | < 100 nM
CC(C)(NC(=O)c1ccc(-c2cccnc2)cc1)c1csc(NS(=O)(=O)C2CC2)n1 [Example R39] | 100 to 1000 nM
CCC(NC(=O)c1ccc(-c2cncc(C)n2)cc1)c1csc(NS(=O)(=O)C2CC2)n1 (racemic) [Example R66] | 100 to 1000 nM

Please look at this molecule and report its IC50: CCOc1cncc(-c2ccc(C(=O)NC(CCOC)c3csc(NS(=O)(=O)C4CC4)n3)c(F)c2)n1 (stereo not shown) [Example R88]
100 to 1000 nM

Please look at this molecule and report its IC50: CC(C)(NC(=O)c1ccc(-c2cncc(OCC(F)(F)F)n2)cc1)c1csc(NS(=O)(=O)C2CC2)n1 [Example R57]
100 to 1000 nM

Please look at this molecule and report its IC50: CCOc1cncc(-c2ccc(C(=O)NC(C)(C)c3nc(NS(=O)(=O)C4CC4)sc3Cl)c(F)c2)n1 [Example R75]
100 to 1000 nM

###

# experimental-target: human CTPS1 (Homo sapiens, UniProt P17812)
# Sequence (P17812 1-591): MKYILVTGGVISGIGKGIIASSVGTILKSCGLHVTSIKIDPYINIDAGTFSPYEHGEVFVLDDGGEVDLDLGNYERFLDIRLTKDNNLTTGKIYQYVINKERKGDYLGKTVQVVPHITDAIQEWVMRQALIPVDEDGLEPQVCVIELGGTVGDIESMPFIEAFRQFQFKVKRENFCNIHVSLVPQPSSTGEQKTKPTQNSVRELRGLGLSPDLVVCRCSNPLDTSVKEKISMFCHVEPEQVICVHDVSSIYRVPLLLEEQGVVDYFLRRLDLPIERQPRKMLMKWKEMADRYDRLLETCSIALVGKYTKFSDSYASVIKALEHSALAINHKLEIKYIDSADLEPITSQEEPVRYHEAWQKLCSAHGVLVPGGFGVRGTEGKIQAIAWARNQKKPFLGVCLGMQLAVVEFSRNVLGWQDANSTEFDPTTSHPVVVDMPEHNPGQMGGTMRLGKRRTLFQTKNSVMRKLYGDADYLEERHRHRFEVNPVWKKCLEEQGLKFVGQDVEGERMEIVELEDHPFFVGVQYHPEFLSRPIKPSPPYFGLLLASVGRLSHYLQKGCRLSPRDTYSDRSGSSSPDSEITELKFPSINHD
pIC50: −log10 of the molar value.
readout-kind: pIC50

Sample answers from the record:
compound | readout-kind | result
CC(C)(NC(=O)c1ccc(-c2cncc(C(F)(F)F)n2)cc1F)c1csc(NS(=O)(=O)C2CC2)n1 [Example R42] | pIC50 | > 7.00
CC(C)(NC(=O)c1ccc(-c2cncc(F)c2)cc1)c1csc(NS(=O)(=O)C2CC2)n1 [Example R36] | pIC50 | 6.00 to 7.00
CC(C)(NC(=O)c1ccc(-c2cnccn2)cc1)c1csc(NS(=O)(=O)C2CC2)n1 [Example R58] | pIC50 | 6.00 to 7.00
CCC(CC)(NC(=O)c1ccc(-c2cncc(C)n2)cc1)c1csc(NS(=O)(=O)C2CC2)n1 [Example R21] | pIC50 | > 7.00
O=C(NCc1csc(NS(=O)(=O)C2CC2)n1)c1ccc(-c2ccccc2)cc1 [Example R9] | pIC50 | 5.00 to 6.00
CC(C)(NC(=O)c1ccc(-c2cncc(Cl)c2)cc1)c1csc(NS(=O)(=O)C2CC2)n1 [Example R28] | pIC50 | > 7.00
CCC(CC)(NC(=O)c1ccc(-c2cncc(C(F)(F)F)n2)cc1)c1csc(NS(=O)(=O)C2CC2)n1 [Example R19] | pIC50 | > 7.00
CCc1cncc(-c2ccc(C(=O)NC(C)(C)c3csc(NS(=O)(=O)C4CC4)n3)c(F)c2)n1 [Example R41] | pIC50 | 6.00 to 7.00
CC(C)(NC(=O)c1ccc(-c2cncc(Cl)c2)cc1F)c1csc(NS(=O)(=O)C2CC2)n1 [Example R30] | pIC50 | 6.00 to 7.00
COc1cncc(-c2ccc(C(=O)NC(C)(C)c3csc(NS(=O)(=O)C4CC4)n3)cc2)c1 [Example R38] | pIC50 | 6.00 to 7.00

Please look at this compound and report its pIC50: CCC(NC(=O)c1ccc(-c2cncc(C(F)(F)F)c2)cc1)c1csc(NS(=O)(=O)C2CC2)n1 (racemic) [Example R2]
6.00 to 7.00

Please look at this compound and report its pIC50: COc1cc(-c2cncc(C(F)(F)F)c2)ccc1C(=O)NC(C)(C)c1csc(NS(=O)(=O)C2CC2)n1 [Example R32]
6.00 to 7.00

Please look at this compound and report its pIC50: CCOc1cncc(-c2ccc(C(=O)NCc3csc(NS(=O)(=O)C4CC4)n3)cc2)n1 [Example R14]
> 7.00

Please look at this compound and report its pIC50: CCC(NC(=O)c1ccc(-c2cncc(F)c2)cc1)c1csc(NS(=O)(=O)C2CC2)n1 (single isomer, unassigned) [Example R68]
5.00 to 6.00

Please look at this compound and report its pIC50: CCC(NC(=O)c1ccc(-c2cnccn2)cc1)c1csc(NS(=O)(=O)C2CC2)n1 (racemic) [Example R67]
6.00 to 7.00
